Value source: patent US20120237528A1

# target of assay: Innovin, lyophilized recombinant human tissue factor combined with phospholipids (human, UniProt P13726 33-295, limits assumed); note: test concentration or dose not given here
# protocol text: cell-based or functional assay
Recorded measurements of T½ Max (seconds), coagulation of human plasma, one per entry
Record the value in s, omitting the unit from your answer.

binder	measure unit	meas value
M1586 (antibody, V domains shown, complete MAb; FR4 is its own entry; also called H164/L3) VH: EVQLVQSGAEVKKPGESLRISCKGSGYTFPTYWIEWVRQMPGKGLEWMGDIIPGTGWTNYSPSFQGHVTISADKSISTAYLQWSSLKASDTAMYYCARSGYYGNSGFAYWGQGTLVTVSS VL: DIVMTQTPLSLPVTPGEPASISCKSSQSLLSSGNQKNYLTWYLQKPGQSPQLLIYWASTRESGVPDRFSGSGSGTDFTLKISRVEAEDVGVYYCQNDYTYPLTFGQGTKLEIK	s	200

Proceeding to the next binder to report its T½ Max (seconds), coagulation of human plasma.
// query Looking for the measured T½ Max (seconds), coagulation of human plasma of M1611 (antibody, V domains shown, complete MAb; FR4 is its own entry; also called H128/L3) VH: EVQLVQSGAEVKKPGESLRISCKGSGYTFGPYWIEWVRQMPGKGLEWMGDILPGSGYTTYSPSFQGHVTISADKSISTAYLQWSSLKASDTAMYYCARSGYYGNSGFAYWGQGTLVTVSS VL: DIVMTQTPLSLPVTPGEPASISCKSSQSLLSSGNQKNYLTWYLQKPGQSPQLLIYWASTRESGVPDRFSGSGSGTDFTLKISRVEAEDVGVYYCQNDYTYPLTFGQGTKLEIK , can you help?
// result 154
